The compounds listed here are annotated with their growth inhibition.
test: NCI Yeast Anticancer Drug Screen. Data for the sgs1 mgt1 strain (AID 161);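 also: 0% = growth of cultures given vehicle only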; conditions: S. cerevisiae sgs1 mgt1 strain, at 50.0 µM, active compounds read high
Compounds without any hit were thinned out: in the full panel of roughly 79,000, 15% have a hit. Activity calls are given as the source filed them. Rule as the data show it: active = growth inhibition above about 70%; inactive = the rest.

| COMPOUND | growth inhibition |
| --- | --- |
| CC1=CC(=O)C(O)C2(C)C(CCC3(C)OCCO3)C=C(O[Si](C)(C)C(C)(C)C)CC12 (centres undefined) | 1.2% (inactive) |
| CC1CSC(C)(C)C(=O)N1 (centres undefined) | 2.35% (inactive) |
| O=C1NN=CN2C(=O)CCC12 (centres undefined) | 14.3% (inactive) |
| CCOC(=O)c1c(OC)c(-c2ccccc2)c(=O)n2c3ccccc3n(C)c12 | -0.2% (inactive) |
| OC1(c2ccccc2)c2ccccc2NC2=NCCN21 (centres undefined) | -10.7% (inactive) |
| C[n+]1ccccc1/C=C/c1ccc([N+](=O)[O-])cc1 | 13.2% (inactive) |
| OC(CC1=NCCS1)(c1ccccc1)c1ccccc1 | 96.8% (active) |
| COc1ccc(CC(=O)NCCc2ccc(OC)c(OC)c2)cc1Br | -3.8% (inactive) |
| CC1(C)CC(=O)C(/C=N/C(=S)NCc2ccccc2)=C(O)C1 | -16% (inactive) |
| O=C1c2cc([N+](=O)[O-])ccc2-c2c(S)cccc21 | -10.2% (inactive) |
| Cn1c(=O)c2c(nc(CCCCCCCCc3nc4c(c(=O)n(C)c(=O)n4C)n3C)n2C)n(C)c1=O | -24.8% (inactive) |
| CC1(C)N=C(N)N=C(N)N1c1cccc(/C=C/c2ccc([N+](=O)[O-])cc2)c1 | -6.1% (inactive) |
| CC(=O)NC(CCCCNC(=O)OC(C)(C)C)C(=O)O (centres undefined) | -23.2% (inactive) |
| O=[N+]([O-])c1ccc(N=Nc2c(O)c3ccccc3c3ccccc23)c([N+](=O)[O-])c1 | 27.9% (inactive) |
| Nc1ccc(C(=O)OCCN2CCN(CCOC(=O)c3ccc(N)cc3)CC2)cc1 | 12.6% (inactive) |
| Cc1c(CCO)sc[n+]1CC(=O)c1ccccc1 | -3.7% (inactive) |
| CCOC(=O)c1ccc(NC=O)cc1 | -8.75% (inactive) |
| O | 17% (inactive) |
| O=C1NC2(CCCC2)C(=O)NC12CCCC2 | -1.45% (inactive) |
| O=C(Nc1nc(C23CC4CC(CC(C4)C2)C3)cs1)c1cc2cc([N+](=O)[O-])ccc2oc1=O | -14.8% (inactive) |
| CC(O)C(O)C(=O)NN (centres undefined) | 11.4% (inactive) |
| COc1ccc(/C=C(/NC(=O)c2ccccc2)C(=O)O)c(OC)c1C | 1.3% (inactive) |
| Cc1ccc(S(=O)(=O)Nc2ccc([N+](=O)[O-])cc2[N+](=O)[O-])cc1 | -1.65% (inactive) |
| CCCCCCCCCCCC(=O)OC(COC(N)=O)COc1ccc(Cl)cc1 (centres undefined) | -18.9% (inactive) |

====

experiment: NCI Yeast Anticancer Drug Screen. Data for the sgs1 mgt1 strain (AID 161);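 also: 0% = growth of cultures given vehicle only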; details: S. cerevisiae sgs1 mgt1 strain, at 50.0 µM, active compounds read high
About 79,000 compounds went through this panel and 15% of them were active in at least one assay; those are over-represented in the sample as a whole.

| COMPOUND | growth inhibition (%) |
| --- | --- |
| CCOC(=O)NC(Nc1ccc(S(=O)(=O)Nc2ncccn2)cc1)(C(=O)OCC)C(F)(F)F (configuration not stated) | 10.9 |
| CC(=O)OC1OCCCC1Cl (configuration not stated) | -7.75 |
| Cc1ccc(O)c(O)c1 | -6.45 |
| CC(=O)C(=Cc1ccc(Cl)c(Cl)c1)C(C)=O | 99.7 |
| C=CCNC(=S)Nc1cc(Cl)ccc1OC | -2.45 |
| COC(=O)CC(NC(=O)C(Cc1ccccc1)NC(=O)OCc1ccccc1)C(=O)O (configuration not stated) | 18.2 |
| Clc1ccc(C=Nc2ccccc2)c(Cl)c1 | 20.9 |
